molecular target: Acetylcholinesterase (Homo sapiens, UniProt P22303); test: Inhibition of human recombinant AChE using acetylthiocholine iodide as substrate measured over 60 secs by Ellman assay
Sequence (P22303 whole entry): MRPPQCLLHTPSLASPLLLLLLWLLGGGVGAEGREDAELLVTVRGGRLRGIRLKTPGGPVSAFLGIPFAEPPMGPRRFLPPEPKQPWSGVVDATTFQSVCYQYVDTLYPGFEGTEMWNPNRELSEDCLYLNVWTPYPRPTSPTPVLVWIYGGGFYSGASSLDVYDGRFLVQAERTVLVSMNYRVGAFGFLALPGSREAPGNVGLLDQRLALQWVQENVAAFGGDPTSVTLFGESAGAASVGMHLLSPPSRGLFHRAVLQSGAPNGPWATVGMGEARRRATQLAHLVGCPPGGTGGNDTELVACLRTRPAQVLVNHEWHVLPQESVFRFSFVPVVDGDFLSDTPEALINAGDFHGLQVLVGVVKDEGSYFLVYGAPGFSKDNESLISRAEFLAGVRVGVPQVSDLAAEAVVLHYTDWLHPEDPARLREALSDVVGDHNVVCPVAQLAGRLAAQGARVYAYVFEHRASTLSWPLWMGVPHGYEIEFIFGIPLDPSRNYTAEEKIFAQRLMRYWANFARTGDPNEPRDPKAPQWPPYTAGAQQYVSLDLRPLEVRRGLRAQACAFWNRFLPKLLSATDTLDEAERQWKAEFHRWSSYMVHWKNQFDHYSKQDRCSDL
Property Measured: IC50

Smiles Code | Target Or Test System | Property Measured | Reported Measurement
O=C(COc1ccccc1)N1CCN(C2CCN(Cc3ccccc3)CC2)CC1 | Acetylcholinesterase (Homo sapiens, UniProt P22303) | IC50 | 43 µM
Fc1ccccc1COc1ccccc1CNCCN1CCOCC1 | Acetylcholinesterase (Homo sapiens, UniProt P22303) | IC50 | > 500 µM
O=S(=O)(NCCSc1nnc(-c2ccco2)n1-c1ccccc1)c1ccccc1 | Acetylcholinesterase (Homo sapiens, UniProt P22303) | IC50 | > 1000 µM
CCOc1ccc(-n2c(SCc3nc(-c4ccccc4C)no3)nnc2-c2ccccc2)cc1 | Acetylcholinesterase (Homo sapiens, UniProt P22303) | IC50 | > 1000 µM
CCSc1nc2sc3c(c2c(=O)n1-c1ccccc1)CCN(Cc1ccccc1)C3 | Acetylcholinesterase (Homo sapiens, UniProt P22303) | IC50 | 5.1 µM

Then there is this compound:
input: # IC50 lookup, item `COc1ccc(CN2CC=C(c3ccc(F)cc3)CC2)cc1OCc1ccccc1`
output: > 200 µM

* * *

target: UniProt Q869C3; assay: Inhibition of Anopheles gambiae recombinant AChE1 expressed in baculovirus infected insect Sf9 cells at 50 uM using acetylthiocholine iodide as substrate measured over 60 secs by Ellman assay relative to control
Sequence (Q869C3 39-737 limits assumed): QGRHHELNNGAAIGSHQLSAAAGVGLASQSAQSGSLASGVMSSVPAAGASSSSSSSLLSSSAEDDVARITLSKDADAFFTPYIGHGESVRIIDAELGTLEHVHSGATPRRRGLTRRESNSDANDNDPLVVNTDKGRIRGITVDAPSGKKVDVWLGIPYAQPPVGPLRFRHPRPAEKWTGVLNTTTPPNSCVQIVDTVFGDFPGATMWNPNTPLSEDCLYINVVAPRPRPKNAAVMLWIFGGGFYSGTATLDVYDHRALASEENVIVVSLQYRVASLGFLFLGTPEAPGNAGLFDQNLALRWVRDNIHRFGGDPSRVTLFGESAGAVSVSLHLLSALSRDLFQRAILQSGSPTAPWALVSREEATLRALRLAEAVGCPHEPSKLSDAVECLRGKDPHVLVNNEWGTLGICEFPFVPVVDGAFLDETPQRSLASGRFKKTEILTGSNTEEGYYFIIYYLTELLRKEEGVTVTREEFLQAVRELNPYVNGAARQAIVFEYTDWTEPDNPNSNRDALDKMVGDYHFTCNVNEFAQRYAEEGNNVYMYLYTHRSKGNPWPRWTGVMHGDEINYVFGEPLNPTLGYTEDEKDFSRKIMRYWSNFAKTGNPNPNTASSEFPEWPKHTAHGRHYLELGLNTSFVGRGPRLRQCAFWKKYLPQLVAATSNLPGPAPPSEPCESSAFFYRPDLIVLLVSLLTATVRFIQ
We begin with a simple list: items and their reported inhibition.
The reply should be a number in %, with the unit left off.

Smiles Code | Target Or Test System | inhibition [%]
COc1ccc(CN2CC=C(c3ccc(F)cc3)CC2)cc1OCc1ccccc1 | UniProt Q869C3 | 86
CCN1CCN(C2CCN(C(=O)COc3ccc(-c4ccccc4)cc3)CC2)CC1 | UniProt Q869C3 | 92
O=C(COc1ccccc1)N1CCN(C2CCN(Cc3ccccc3)CC2)CC1 | UniProt Q869C3 | 24
O=C(COc1ccc(Cl)cc1Cl)Nc1ccc(CN2CCCCC2)cc1 | UniProt Q869C3 | 93

input: // inhibition lookup, key: `c1ccc(COc2ccc(CN3CCc4ccccc4C3)cc2)cc1`
output: 41

input: Item `O=S(=O)(NCCSc1nnc(-c2ccco2)n1-c1ccccc1)c1ccccc1` has what recorded inhibition?
output: 76
